protocol: Tanguay_ZF_120hpf_YSE_legacy: (Legacy) Oregon State University Tanguay Lab 120 Hour Post-fertilization zebrafish Assay for Yolk Sac Edema (AID 2283634)
Records with an inconclusive call do not appear. Activity calls are given as the source filed them. The calls were made as follows: active = hit-call score of the fitted dose curve at least 0.9, where 1 is the maximum; inconclusive = response in the unintended direction; inactive = score below 0.9.
Outcomes: active, inactive

molecule=C1CCC(SSC2CCCCC2)CC1 qualitative_label=inactive
molecule=CC(=O)OC/C=C(\C)CCC=C(C)C qualitative_label=inactive
molecule=Cc1cc(NC(=O)C(=O)O)cc(C)c1Oc1ccc(O)c2c1CCC2 qualitative_label=active
molecule=Cc1ccc(C)c(C)c1 qualitative_label=inactive
molecule=CC(C)c1ccc(C(=O)N=C(N)N)cc1S(C)(=O)=O qualitative_label=inactive
molecule=Cc1cccc(Nc2cc(Cl)nc(SCC(=O)O)n2)c1C qualitative_label=inactive
molecule="CC1(C)CC(N=C=O)CC(C)(CN=C=O)C1 (stereo not given)" qualitative_label=inactive
molecule=Oc1ccc2ccccc2c1N=Nc1ccccc1 qualitative_label=active
molecule="COCCOC[C@H](CC1(C(=O)NC2CCC(C(=O)O)CC2)CCCC1)C(=O)Oc1ccc2c(c1)CCC2 (stereo not given in full)" qualitative_label=inactive
molecule=CCCCc1ccc2c(n1)[C@@H](c1ccc(OC)cc1C[C@H](C)C(=O)O)[C@H](C(=O)O)[C@H]2c1ccc2c(c1)OCO2 qualitative_label=inactive
